Reference source for all entries: PubChem BioAssay (Tox21)

Test: qHTS assay to identify small molecule antagonists of the sonic hedgehog signaling (Shh) pathway - cell viability counter screen (AID 1259367); also: nearly all actives have a fitted effect of over 55% in size
Settings: NIH/3T3 Gli1-Luc viability, CellTiter-Fluor, 24 h; series mostly up to 92.4 µM
Source text: National Center for Advancing Translational Sciences [NCATS] NIH Chemical Genomics Center [NCGC] U.S. Environmental Protection Agency [EPA] National Institutes of Environmental Health Sciences [NIEHS] National Toxicology Program [NTP] U.S. Food and Drug Administration [FDA] The sonic hedgehog (Shh) pathway is essential for normal embryonic development. Dysregulation of the Shh pathway can cause severe developmental defects in organs. […]
Inconclusive results are not listed. The source made the active and inactive calls. Calls follow the shape of the dose curve; as a rule, active = well fitted cell-killing curve with a large enough effect in the repeat runs; inconclusive = weak or mixed curves, or effect the other way; inactive = no such curve, though single readings can be large or run the other way.
Your answer must be one of the following: active, inactive

Record excerpt, results attached:
CCCCNc1c(C(=O)OCC)c(C)nc2c1cnn2CC :: inactive
C=CC(=O)OCCOCC(CC)(COCCOC(=O)C=C)COCCOC(=O)C=C :: active
CCCCCCC(C)OC(=O)COc1nc(F)c(Cl)c(N)c1Cl (centres undefined) :: inactive
CN1[C@@H]2CC[C@@H]1CC(OC(=O)C(CO)c1ccccc1)C2 (some centres undefined) :: inactive
O[C@@H](c1cc(C(F)(F)F)nc2c(C(F)(F)F)cccc12)[C@H]1CCCCN1 :: active
CCCCCCCC(C)=O :: inactive

[ask] Look up the recorded call for "CCN(CC)c1cccc(C)c1" in this test.
[reply] inactive

[ask] Look up the recorded call for "C/C=C/CO" in this test.
[reply] inactive

[ask] Look up the recorded call for "COC(=O)CC#N" in this test.
[reply] inactive

* * *

Assay: qHTS RealTime-Glo MT Cell Viability Assay in HepG2 cells - 40 hour (AID 1224870); also: nearly all actives have a fitted effect of over 50% in size
Conditions: RealTime-Glo luminescence; series mostly up to 76.8 µM
Records with an inconclusive call do not appear. The source made the active and inactive calls. Calls follow the shape of the dose curve; as a rule, active = well fitted cell-killing curve with a large enough effect in the repeat runs; inconclusive = weak or mixed curves, or effect the other way; inactive = flat fitted curve, though single readings scatter.
Your answer must be one of the following: active, inactive

C/C=C/C(=O)Oc1c(CCCCCC(C)C)cc([N+](=O)[O-])cc1[N+](=O)[O-] :: active
CCCCCCCCCCCCCc1ccccc1 :: inactive
CCC(C)c1ccccc1 (stereo not given) :: inactive

[ask] Look up the recorded call for "O=C(Nc1ccc(Cl)c(Cl)c1)c1cc(Cl)cc(Cl)c1O" in this test.
[reply] active

[ask] Look up the recorded call for "CCC1CCCCC1" in this test.
[reply] inactive

[ask] Look up the recorded call for "O=C(O)CCCCCCC(=O)O" in this test.
[reply] inactive

[ask] Look up the recorded call for CC(COC(=O)c1ccccc1)OC(=O)c1ccccc1 (stereo not given) in this test.
[reply] inactive

[ask] Look up the recorded call for "CCCCCCCCC(C)=O" in this test.
[reply] inactive

[ask] Look up the recorded call for CCN(CC)CCOc1ccc(C(O)(Cc2ccc(Cl)cc2)c2ccc(C)cc2)cc1 (stereo not given) in this test.
[reply] active

[ask] Look up the recorded call for CCNc1nc(NC(C)CC)nc(OC)n1 (stereo not given) in this test.
[reply] inactive

[ask] Look up the recorded call for "CCOC(=O)CN" in this test.
[reply] inactive

[ask] Look up the recorded call for "COC(=O)[C@]1(C)CCC[C@@]2(C)[C@H]1CC=C1C=C(C(C)C)CC[C@@H]12" in this test.
[reply] inactive

[ask] Look up the recorded call for "Oc1ccc(-c2ccccc2)c(Cl)c1" in this test.
[reply] inactive
